Biological target: T1, Sis10b ΔN12 (Sulfolobus islandicus REY15A, UniProt F0NHH1 13-97, del1-12)
T1 sequence: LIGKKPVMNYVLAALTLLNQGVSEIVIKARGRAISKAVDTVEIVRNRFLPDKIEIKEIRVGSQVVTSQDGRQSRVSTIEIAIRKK
Experiment: EMSA; 55°C; EMSA: 20 mM HEPES-NaOH pH 7.0, 1 mM DTT, 100 ug/ml BSA, 6% glycerol, 30 min at 25, 37 or 55°C; gel in 0.5x TBE at the same temperature
Conditions: protein: recombinant; tags: none; chain copies: 2; label: 5' 32P on top strand; blunt
Measured quantity: Kd

Task: Requested field: Kd. Item: 44-bp dsRNA (dsRNA) RNA 1: UGACUUCCGCGCGUGAGCUCGAUUCCACAUACCCUAAAUCGCUC RNA 2: GAGCGAUUUAGGGUAUGUGGAAUCGAGCUCACGCGCGGAAGUCA
Result: ~98.1 nM
